Listed molecules paired with reported IC50
biological target: mouse IDO1 (Mus musculus); construct: The murine PANC02 pancreatic ductal adenocarcinoma cell line was routinely maintained in DMEM media; endogenous in cells; test: Mouse IDO1 cell-based assay (PANC02 cells, mouse IFNgamma-induced, N-formylkynurenine/L-tryptophan by RFMS); details: 30 ng/mL mouse IFNgamma, 48 hours
Sequence (P28776 whole entry): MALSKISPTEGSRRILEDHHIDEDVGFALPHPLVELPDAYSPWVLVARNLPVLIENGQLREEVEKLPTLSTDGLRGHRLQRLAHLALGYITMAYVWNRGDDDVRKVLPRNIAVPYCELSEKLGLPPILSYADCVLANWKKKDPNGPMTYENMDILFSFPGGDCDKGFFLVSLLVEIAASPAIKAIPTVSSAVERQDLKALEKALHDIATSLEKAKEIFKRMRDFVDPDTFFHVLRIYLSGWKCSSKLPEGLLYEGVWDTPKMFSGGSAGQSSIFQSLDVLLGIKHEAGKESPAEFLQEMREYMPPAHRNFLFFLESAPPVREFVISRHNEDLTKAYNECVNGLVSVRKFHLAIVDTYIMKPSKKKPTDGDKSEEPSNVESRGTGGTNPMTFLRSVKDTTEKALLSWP
Measured endpoint: IC50

INSERT INTO measurements (molecule, target, reported) VALUES
  ('CCC(NC(=O)c1ccc(Cl)cc1)[C@H]1[C@@H]2C[C@@H](n3ncc4c(F)cccc43)C[C@@H]21 (some centres unmarked)', 'mouse IDO1 (Mus musculus)', '0.5 to 2 µM'),
  ('C[C@@H](NC(=O)c1ccc(C#N)cc1)[C@H]1[C@@H]2C[C@@H](Oc3ncnc4ccc(F)cc34)C[C@@H]21', 'mouse IDO1 (Mus musculus)', '0.5 to 2 µM'),
  ('CCC(NC(=O)c1ccc(Cl)cc1)[C@H]1[C@@H]2C[C@@H](N3Cc4ccccc4C3=O)C[C@@H]21 (some centres unmarked)', 'mouse IDO1 (Mus musculus)', '0.5 to 2 µM'),
  ('CCC(NC(=O)c1ccc(Cl)cc1)[C@@H]1[C@H]2C=C(c3ncnc4cc(F)ccc34)C[C@H]21 (some centres unmarked)', 'mouse IDO1 (Mus musculus)', '2 to 5 µM'),
  ('CCC(NC(=O)c1ccc(Cl)cc1)[C@H]1[C@@H]2C[C@H](NC(=O)c3nccc(C(F)(F)F)c3Cl)C[C@@H]21 (some centres unmarked)', 'mouse IDO1 (Mus musculus)', '0.5 to 2 µM'),
  ('CCC(NC(=O)c1ccc(Cl)cc1)[C@H]1[C@@H]2C[C@@H](Oc3ncnc4cc(Cl)ccc34)C[C@@H]21 (some centres unmarked)', 'mouse IDO1 (Mus musculus)', '2 to 5 µM'),
  ('CCC(NC(=O)c1ccc(Cl)cc1)[C@H]1[C@@H]2C[C@@H](C(C(=O)OC)c3ccccc3)C[C@@H]21 (mixture of isomers) [Compound 202]', 'mouse IDO1 (Mus musculus)', '0.5 to 2 µM'),
  ('CCOCc1cn([C@H]2C[C@@H]3[C@H](C2)[C@H]3C(CC)NC(=O)c2ccc(Cl)cc2)nn1 (some centres unmarked)', 'mouse IDO1 (Mus musculus)', '< 0.5 µM');
